TARGET_OR_SYSTEM: talin-1 phosphotyrosine binding (TLN1 PTB) domain (human, UniProt Q9Y490 309-401)
Sequence (Q9Y490 309-401): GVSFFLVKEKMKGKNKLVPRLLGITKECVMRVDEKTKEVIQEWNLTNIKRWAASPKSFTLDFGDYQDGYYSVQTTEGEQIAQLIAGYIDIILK
MEASUREMENT_DESCRIPTION: fluorescence polarisation; saturation (direct binding): human bait protein in serial dilution added to 10 nM-master-mix FITC-labeled probe peptide; 50 mM KPO4 pH 7.5, DTT; triplicates; fit to a quadratic equation
CONDITION_INFO: both partners purified
No end group written: not given here. *: point of attachment. FITC = O=C1OC2(c3ccc(O)cc3Oc3cc(O)ccc32)c2ccc(NC(=S)*)cc21
MEASURED_ENDPOINT: pKd
// pKd: -log10(molar conc.)

Endpoint output: pKd of {FITC}-FPTDERSWVYSPLHYS (source: synthetic peptide (GeneCust)) [FITC-labeled PIP5K1C probe peptide FITC-FPTDERSWVYSPLHYS] . Value? 7.19
